// provenance: patent US11248013B2

// values below are reported pIC50
- studyTarget: PARP-1 (Homo sapiens (Human), UniProt P09874)
- Sequence (P09874 whole entry): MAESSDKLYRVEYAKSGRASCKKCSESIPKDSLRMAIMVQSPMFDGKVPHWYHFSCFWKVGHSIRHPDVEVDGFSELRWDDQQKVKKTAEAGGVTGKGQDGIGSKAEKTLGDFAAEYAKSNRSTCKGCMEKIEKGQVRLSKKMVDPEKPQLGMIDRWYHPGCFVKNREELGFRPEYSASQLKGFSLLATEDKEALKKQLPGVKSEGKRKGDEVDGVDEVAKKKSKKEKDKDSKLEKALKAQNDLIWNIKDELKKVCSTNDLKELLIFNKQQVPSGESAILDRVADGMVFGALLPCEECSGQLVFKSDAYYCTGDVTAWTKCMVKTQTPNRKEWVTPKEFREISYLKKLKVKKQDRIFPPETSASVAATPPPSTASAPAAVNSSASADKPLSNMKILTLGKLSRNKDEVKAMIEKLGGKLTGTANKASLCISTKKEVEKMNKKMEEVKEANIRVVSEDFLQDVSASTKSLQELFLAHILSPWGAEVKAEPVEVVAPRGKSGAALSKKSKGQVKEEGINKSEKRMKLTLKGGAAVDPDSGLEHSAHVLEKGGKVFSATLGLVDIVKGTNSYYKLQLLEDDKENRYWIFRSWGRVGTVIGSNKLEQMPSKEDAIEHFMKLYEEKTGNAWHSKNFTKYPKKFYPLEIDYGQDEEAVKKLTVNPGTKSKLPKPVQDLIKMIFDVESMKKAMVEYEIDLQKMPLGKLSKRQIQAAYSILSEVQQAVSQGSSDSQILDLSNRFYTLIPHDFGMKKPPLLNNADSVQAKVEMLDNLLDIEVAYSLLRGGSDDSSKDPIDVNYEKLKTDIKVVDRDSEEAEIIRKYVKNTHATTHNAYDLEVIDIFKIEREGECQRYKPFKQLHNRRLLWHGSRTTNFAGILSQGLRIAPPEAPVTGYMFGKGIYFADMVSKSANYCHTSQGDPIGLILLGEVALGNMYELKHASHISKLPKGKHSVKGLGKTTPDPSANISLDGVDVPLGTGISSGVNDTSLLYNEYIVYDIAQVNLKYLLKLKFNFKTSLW
pIC50: −log10 of the molar value.

>>> measvalue("O=c1[nH]nc(Cc2ccc(F)c(P3(=O)CCN(c4cc(C(F)(F)F)ccn4)CC3)c2)c2ccccc12 [Example 26]")
"> 7.00"
>>> measvalue("O=c1[nH]nc(Cc2ccc(F)c(P3(=O)CCN(Cc4ccccc4)CC3)c2)c2ccccc12 [Example 1]")
"> 7.00"
>>> measvalue("CC(C)(C)CN1CCP(=O)(c2cc(Cc3n[nH]c(=O)c4ccccc34)ccc2F)CC1 [Example 47]")
"6.00 to 7.00"
>>> measvalue("O=c1[nH]nc(Cc2ccc(F)c(P3(=O)CCN(c4ncc5ccccc5n4)CC3)c2)c2ccccc12 [Example 30]")
"> 7.00"
>>> measvalue("O=c1[nH]nc(Cc2ccc(F)c(P3(=O)CCN(c4ncccc4C(F)(F)F)CC3)c2)c2ccccc12 [Example 27]")
"6.00 to 7.00"
>>> measvalue("[2H]C([2H])(c1ccc(F)c(P2(=O)CCN(c3ncccn3)CC2)c1)c1n[nH]c(=O)c2cc(F)ccc12 [Example 57]")
"> 7.00"

**Q:** State, for PARP-1 (Homo sapiens (Human), UniProt P09874), measured pIC50 of the compound listed here: O=C(N1CCCC1)N1CCP(=O)(c2cc(Cc3n[nH]c(=O)c4ccccc34)ccc2F)CC1 [Example 10]
**A:** 6.00 to 7.00

**Q:** State, for PARP-1 (Homo sapiens (Human), UniProt P09874), measured pIC50 of the compound listed here: O=c1[nH]nc(Cc2ccc(F)c(P3(=O)CCN(c4cccc(F)n4)CC3)c2)c2ccccc12 [Example 25]
**A:** > 7.00

**Q:** State, for PARP-1 (Homo sapiens (Human), UniProt P09874), measured pIC50 of the compound listed here: O=c1[nH]nc(C(O)c2ccc(F)c(P3(=O)CCN(C4CC4)CC3)c2)c2ccccc12 (racemic) [Example 58]
**A:** > 7.00

**Q:** State, for PARP-1 (Homo sapiens (Human), UniProt P09874), measured pIC50 of the compound listed here: O=c1[nH]nc(Cc2ccc(F)c(P3(=O)CCN(c4ccnc(Cl)n4)CC3)c2)c2ccccc12 [Example 17]
**A:** > 7.00

**Q:** State, for PARP-1 (Homo sapiens (Human), UniProt P09874), measured pIC50 of the compound listed here: O=c1[nH]nc(Cc2ccc(F)c(P3(=O)CCN(C4CC4)CC3)c2)c2ccccc12 [Example 38]
**A:** > 7.00

**Q:** State, for PARP-1 (Homo sapiens (Human), UniProt P09874), measured pIC50 of the compound listed here: O=c1[nH]nc(Cc2ccc(F)c(P3(=O)CCN(c4ncc(Cl)cn4)CC3)c2)c2ccccc12 [Example 36]
**A:** > 7.00

**Q:** State, for PARP-1 (Homo sapiens (Human), UniProt P09874), measured pIC50 of the compound listed here: O=c1[nH]nc(Cc2ccc(F)c(P3(=O)CCN(c4ccccn4)CC3)c2)c2ccccc12 [Example 19]
**A:** > 7.00

**Q:** State, for PARP-1 (Homo sapiens (Human), UniProt P09874), measured pIC50 of the compound listed here: O=c1[nH]nc(Cc2ccc(F)c(P3(=O)CCN(c4cc(Cl)ncn4)CC3)c2)c2ccccc12 [Example 22]
**A:** > 7.00

**Q:** State, for PARP-1 (Homo sapiens (Human), UniProt P09874), measured pIC50 of the compound listed here: CN(C)C(=O)N1CCP(=O)(c2cc(Cc3n[nH]c(=O)c4ccccc34)ccc2F)CC1 [Example 9]
**A:** 6.00 to 7.00

**Q:** State, for PARP-1 (Homo sapiens (Human), UniProt P09874), measured pIC50 of the compound listed here: CC(C)N1CCP(=O)(c2cc(Cc3n[nH]c(=O)c4ccccc34)ccc2F)CC1 [Example 42]
**A:** > 7.00
